# Test system: A549 cells
# Measurement description: Cell cycle assay in A549 cells
# Format: cell-based, human
# Experimental context: A549 cells, 150 nM, 24 hours; relative to the untreated control cells in that phase
Property measured: % cells in cell cycle phase: G2/M (%)
Give just the number in %; leave the unit off.

Please review the entries below; each comes with its answer.
338637 (antisense TCAGAGCGGAGAGACACAAG; all 2'-MOE, all phosphorothioate, methylation of C not given here) [compound 338637] = 144
338836 (antisense TCCTCGGTGGCAGAGCTCAG; all 2'-MOE, all phosphorothioate, methylation of C not given here) [compound 338836] = 149
338769 (antisense GCTTCCCAGCGGCCTATAGT; all 2'-MOE, all phosphorothioate, methylation of C not given here) [compound 338769] = 145

Attention now turns to another entry.
Prompt: Query the reported % cells in cell cycle phase: G2/M for A549 cells; item: 340350 (antisense TGCTCAATAAATACCCGTTGAA; all 2'-MOE, all phosphorothioate, methylation of C not given here) [compound 340350]
Completion: 211

====

# Tested on: HSL
# Measurement description: HSL mRNA expression in adipocytes (real-time PCR)
# Assay type: cell-based, human
# Experimental context: differentiating adipocytes transfected with oligomeric compound; Table 75
In the oligonucleotide strings, read from the 5' end, every base follows the letter of its sugar. An asterisk marks phosphorothioate; unmarked linkages are phosphodiester. Other units and linkages are bracketed, terminal groups are in braces. A string of capitals states the bases alone. e = 2'-O-(2-methoxyethyl) (MOE); [5mC] = 5-methylcytosine
Property measured: HSL mRNA

Prompt: Which value of HSL mRNA has been reported for 346694 (AACCCAUGGAAUUCAGUUCUCA; all 2'-MOE, all phosphorothioate, methylation of C and T or U not given here) [compound 346694] in the records?
Completion: 18 percentage of untreated control (UTC)

Prompt: Which value of HSL mRNA has been reported for 327917 (antisense eT*e[5mC]*eA*eA*e[5mC]*eA*eT*e[5mC]*eA*eG*eT*e[5mC]*eT*eG*eA*eT*eA*eA*eG*e[5mC]*eT*eA) [compound 327917] in the records?
Completion: 26 percentage of untreated control (UTC)

Prompt: Which value of HSL mRNA has been reported for 327944 (antisense eA*eA*eA*eG*eT*eG*eT*e[5mC]*eA*eG*eA*eT*eA*e[5mC]*eG*eG*eT*eG*eT*eG*eG) [compound 327944] in the records?
Completion: 55 percentage of untreated control (UTC)

Prompt: Which value of HSL mRNA has been reported for 328124 (antisense eA*eG*e[5mC]*eA*eG*eG*eT*eG*eA*eA*eG*eG*e[5mC]*eA*e[5mC]*e[5mC]*eT*eG*eG*e[5mC]*eT) [compound 328124] in the records?
Completion: 96 percentage of untreated control (UTC)

Prompt: Which value of HSL mRNA has been reported for 348116 (UUCGCCCUCUCAACCCAGCUUUU; anti-miR; all 2'-MOE, all phosphorothioate, methylation of C and T or U not given here) [compound 348116] in the records?
Completion: 58 percentage of untreated control (UTC)

====

# Tested on: adipocytes
# Measurement description: Triglyceride accumulation assay in adipocytes
# Format: cell-based, human
# Experimental context: differentiating adipocytes transfected with oligomeric compound; Table 75
In the oligonucleotide strings, read from the 5' end, every base follows the letter of its sugar. An asterisk marks phosphorothioate; unmarked linkages are phosphodiester. Other units and linkages are bracketed, terminal groups are in braces. A string of capitals states the bases alone. e = 2'-O-(2-methoxyethyl) (MOE); [5mC] = 5-methylcytosine
Readings of TG (triglyceride accumulation) for the listed substances

Please review the entries below; each comes with its answer.
341791 (antisense GCUUCCAGUCGAGGAUGUUUACA; all 2'-MOE, all phosphorothioate, methylation of C and T or U not given here) [compound 341791] = 50 percentage of untreated control (UTC)
327885 (antisense eA*e[5mC]*eT*eA*e[5mC]*e[5mC]*eT*eG*e[5mC]*eA*e[5mC]*eT*eG*eT*eA*eA*eG*e[5mC]*eA*e[5mC]*eT*eT*eT*eG) [compound 327885] = 29 percentage of untreated control (UTC)
327881 (antisense eA*eA*eA*eA*eG*eA*eG*eA*e[5mC]*e[5mC]*eG*eG*eT*eT*e[5mC]*eA*e[5mC]*eT*eG*eT*eG*eA) [compound 327881] = 91 percentage of untreated control (UTC)

Prompt: Query the reported TG (triglyceride accumulation) for adipocytes; item: 346689 (CAUCAUUACCAGGCAGUAUUAGAG; all 2'-MOE, all phosphorothioate, methylation of C and T or U not given here) [compound 346689]
Completion: 59 percentage of untreated control (UTC)

====

# System: HeLa cells
# Measurement description: Cell cycle assay in HeLa cells
# Assay type: cell-based, human
# Experimental context: HeLa cells, 150 nM, 48 hours, relative to untreated control
In the oligonucleotide strings, read from the 5' end, every base follows the letter of its sugar. An asterisk marks phosphorothioate; unmarked linkages are phosphodiester. Other units and linkages are bracketed, terminal groups are in braces. A string of capitals states the bases alone. e = 2'-O-(2-methoxyethyl) (MOE); [5mC] = 5-methylcytosine; d = 2'-deoxy (DNA)
Property measured: % cells in cell cycle phase G1 (%)
Give just the number in %; leave the unit off.

Prompt: Which value of % cells in cell cycle phase G1 has been reported for 338836 (antisense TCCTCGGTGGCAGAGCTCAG; all 2'-MOE, all phosphorothioate, methylation of C not given here) [compound 338836] in the records?
Completion: 97

Prompt: Which value of % cells in cell cycle phase G1 has been reported for 338666 (antisense TCACGTGGAGAGGAGTTAAA; all 2'-MOE, all phosphorothioate, methylation of C not given here) [compound 338666] in the records?
Completion: 92

Prompt: Which value of % cells in cell cycle phase G1 has been reported for 327905 (antisense e[5mC]*eA*eG*eA*e[5mC]*eT*e[5mC]*e[5mC]*eG*eG*eT*eG*eG*eA*eA*eT*eG*eA*eA*eG*eG*eA) [compound 327905] in the records?
Completion: 108

Prompt: Which value of % cells in cell cycle phase G1 has been reported for 345395 (AAGGGATTCCTGGGAAAACTGGAC; sugars from the 5' end e5 d10 e9, all phosphorothioate, methylation of C not given here) [compound 345395] in the records?
Completion: 108

Prompt: Which value of % cells in cell cycle phase G1 has been reported for 338678 (antisense CTGGTTGGGTATGAGACAGA; all 2'-MOE, all phosphorothioate, methylation of C not given here) [compound 338678] in the records?
Completion: 103

====

# System: PPARγ
# Measurement description: PPARγ mRNA expression in adipocytes (real-time PCR)
# Format: cell-based, human
# Experimental context: differentiating adipocytes transfected with oligomeric compound; Table 75
In the oligonucleotide strings, read from the 5' end, every base follows the letter of its sugar. An asterisk marks phosphorothioate; unmarked linkages are phosphodiester. Other units and linkages are bracketed, terminal groups are in braces. A string of capitals states the bases alone. e = 2'-O-(2-methoxyethyl) (MOE); [5mC] = 5-methylcytosine
Readings of PPAR gamma mRNA for the listed substances

Please review the entries below; each comes with its answer.
327958 (antisense e[5mC]*e[5mC]*eG*eG*e[5mC]*eT*eG*e[5mC]*eA*eA*e[5mC]*eA*e[5mC]*eA*eA*eG*eA*e[5mC]*eA*e[5mC]*eG*eA) [compound 327958] = 55 percentage of untreated control (UTC)
327943 (antisense eT*eA*eT*e[5mC]*eT*eG*e[5mC]*eA*e[5mC]*eT*eA*eG*eA*eT*eG*e[5mC]*eA*e[5mC]*e[5mC]*eT*eT*eA) [compound 327943] = 98 percentage of untreated control (UTC)
344269 (antisense UAACCGAUUUCAAAUGGUGCUA; all 2'-MOE, all phosphorothioate, methylation of C and T or U not given here) [compound 344269] = 48 percentage of untreated control (UTC)
344616 (AGAGGUCGACCGUGUAAUGUGC; anti-miR; all 2'-MOE, all phosphorothioate, methylation of C and T or U not given here) [compound 344616] = 36 percentage of untreated control (UTC)

Prompt: Query the reported PPAR gamma mRNA for PPARγ; item: 328126 (antisense e[5mC]*e[5mC]*eA*eA*eG*eT*eG*eT*eT*eA*eG*eA*eG*e[5mC]*eA*eA*eG*eA*eT*e[5mC]*eA) [compound 328126]
Completion: 98 percentage of untreated control (UTC)

Prompt: Query the reported PPAR gamma mRNA for PPARγ; item: 346906 (ACAGGAUUGAGGGGGGGCCCU; all 2'-MOE, all phosphorothioate, methylation of C and T or U not given here) [compound 346906]
Completion: 80 percentage of untreated control (UTC)

Prompt: Query the reported PPAR gamma mRNA for PPARγ; item: 344611 (ACAUUUUUCGUUAUUGCUCUUGA; anti-miR; all 2'-MOE, all phosphorothioate, methylation of C and T or U not given here) [compound 344611]
Completion: 34 percentage of untreated control (UTC)

Prompt: Query the reported PPAR gamma mRNA for PPARγ; item: 328108 (antisense eA*eA*eA*e[5mC]*eT*eT*eG*eT*eT*eA*eA*eT*eT*eG*eA*e[5mC]*eT*eG*eT*e[5mC]*eA) [compound 328108]
Completion: 72 percentage of untreated control (UTC)

Prompt: Query the reported PPAR gamma mRNA for PPARγ; item: 341805 (antisense ACCCTTATCAGTTCTCCGTCCA; all 2'-MOE, all phosphorothioate, methylation of C not given here) [compound 341805]
Completion: 77 percentage of untreated control (UTC)

Prompt: Query the reported PPAR gamma mRNA for PPARγ; item: 328105 (antisense e[5mC]*e[5mC]*eT*e[5mC]*eA*eA*eT*eT*eA*eT*eT*eG*eG*eA*eA*eA*eT*e[5mC]*eA*e[5mC]*eA) [compound 328105]
Completion: 85 percentage of untreated control (UTC)

Prompt: Query the reported PPAR gamma mRNA for PPARγ; item: 327944 (antisense eA*eA*eA*eG*eT*eG*eT*e[5mC]*eA*eG*eA*eT*eA*e[5mC]*eG*eG*eT*eG*eT*eG*eG) [compound 327944]
Completion: 64 percentage of untreated control (UTC)

Prompt: Query the reported PPAR gamma mRNA for PPARγ; item: 344268 (antisense ACACAAAUUCGGUUCUACAGGG; all 2'-MOE, all phosphorothioate, methylation of C and T or U not given here) [compound 344268]
Completion: 53 percentage of untreated control (UTC)

Prompt: Query the reported PPAR gamma mRNA for PPARγ; item: 341800 (antisense AAGCCCAAAAGGAGAAUUCUUUG; all 2'-MOE, all phosphorothioate, methylation of C and T or U not given here) [compound 341800]
Completion: 61 percentage of untreated control (UTC)
